system: Staphylococcus aureus; assay: Antimicrobial activity against Staphylococcus aureus ATCC 25923 by agar dilution method
Record form. Attribute: MIC. Fill in for each entry.
Give the quantity in µg/mL, number only.

Query O=C(/C=C/c1ccccc1)N1CCN(c2ccc(N3C[C@H](Cn4ccnn4)OC3=O)cc2F)CC1 on Staphylococcus aureus; MIC returned: 0.5

Query O=C(c1ccccc1[N+](=O)[O-])N1CCN(c2ccc(N3C[C@H](Cn4ccnn4)OC3=O)cc2F)CC1 on Staphylococcus aureus; MIC returned: 2

Query COc1ccc(C(=O)N2CCN(c3ccc(N4C[C@H](Cn5ccnn5)OC4=O)cc3F)CC2)cc1 on Staphylococcus aureus; MIC returned: 2

Query COc1ccccc1C(=O)N1CCN(c2ccc(N3C[C@H](Cn4ccnn4)OC3=O)cc2F)CC1 on Staphylococcus aureus; MIC returned: 1

Query O=C1O[C@@H](Cn2ccnn2)CN1c1ccc(N2CCN(S(=O)(=O)c3cccs3)CC2)c(F)c1 on Staphylococcus aureus; MIC returned: 1

Query Cc1ccccc1C(=O)N1CCN(c2ccc(N3C[C@H](Cn4ccnn4)OC3=O)cc2F)CC1 on Staphylococcus aureus; MIC returned: 2

Query O=C(/C=C/c1ccccc1Cl)N1CCN(c2ccc(N3C[C@H](Cn4ccnn4)OC3=O)cc2F)CC1 on Staphylococcus aureus; MIC returned: 0.5

Query O=C(c1ccccc1Cl)N1CCN(c2ccc(N3C[C@H](Cn4ccnn4)OC3=O)cc2F)CC1 on Staphylococcus aureus; MIC returned: 1

Query O=C(c1ccc([N+](=O)[O-])cc1)N1CCN(c2ccc(N3C[C@H](Cn4ccnn4)OC3=O)cc2F)CC1 on Staphylococcus aureus; MIC returned: 2

---

system: Streptococcus pneumoniae; experiment: Antimicrobial activity against Streptococcus pneumoniae by agar dilution method; assay type: functional
measured_metric: MIC (µg/mL)
Give the quantity in µg/mL, number only.

Lab note: measured MIC of COc1ccccc1C(=O)N1CCN(c2ccc(N3C[C@H](Cn4ccnn4)OC3=O)cc2F)CC1 was 1

Lab note: measured MIC of O=C1O[C@@H](Cn2ccnn2)CN1c1ccc(N2CCN(S(=O)(=O)c3cccs3)CC2)c(F)c1 was 1

Lab note: measured MIC of O=C1O[C@@H](Cn2ccnn2)CN1c1ccc(N2CCOCC2)c(F)c1 was 0.5

Lab note: measured MIC of O=C1O[C@@H](Cn2ccnn2)CN1c1ccc(N2CCN(S(=O)(=O)c3ccccc3)CC2)c(F)c1 was 1

Lab note: measured MIC of COc1cccc(C(=O)N2CCN(c3ccc(N4C[C@H](Cn5ccnn5)OC4=O)cc3F)CC2)c1 was 0.25

---

test system: Staphylococcus aureus; test: Antimicrobial activity against methicillin-resistant Staphylococcus aureus by agar dilution method; assay type: functional
Record form. Attribute: MIC. Fill in for each entry.
Give the quantity in µg/mL, number only.

Lab note: measured MIC of O=C(c1cccnc1)N1CCN(c2ccc(N3C[C@H](Cn4ccnn4)OC3=O)cc2F)CC1 was 0.5

Lab note: measured MIC of CC(=O)NC[C@H]1CN(c2ccc(N3CCOCC3)c(F)c2)C(=O)O1 [LINEZOLID] was 0.5

Lab note: measured MIC of O=C(c1ccccc1F)N1CCN(c2ccc(N3C[C@H](Cn4ccnn4)OC3=O)cc2F)CC1 was 0.25

Lab note: measured MIC of O=C(c1ccc(F)cc1)N1CCN(c2ccc(N3C[C@H](Cn4ccnn4)OC3=O)cc2F)CC1 was 0.5

Lab note: measured MIC of O=C(c1ccco1)N1CCN(c2ccc(N3C[C@H](Cn4ccnn4)OC3=O)cc2F)CC1 was 0.5

---

test system: Staphylococcus; assay: Antimicrobial activity against methicillin-susceptible coagulase-negative staphylococcus by agar dilution method; assay type: functional
measured_metric: MIC

Lab note: measured MIC of Cc1ccccc1C(=O)N1CCN(c2ccc(N3C[C@H](Cn4ccnn4)OC3=O)cc2F)CC1 was 0.5 µg/mL

Lab note: measured MIC of O=C1O[C@@H](Cn2ccnn2)CN1c1ccc(N2CCN(S(=O)(=O)c3ccccc3)CC2)c(F)c1 was 0.5 µg/mL

Lab note: measured MIC of Cc1ccc(C(=O)N2CCN(c3ccc(N4C[C@H](Cn5ccnn5)OC4=O)cc3F)CC2)cc1 was 0.5 µg/mL

Lab note: measured MIC of O=C(c1cccc([N+](=O)[O-])c1)N1CCN(c2ccc(N3C[C@H](Cn4ccnn4)OC3=O)cc2F)CC1 was 0.5 µg/mL

Lab note: measured MIC of Cc1ccc(S(=O)(=O)N2CCN(c3ccc(N4C[C@H](Cn5ccnn5)OC4=O)cc3F)CC2)cc1 was > 8 µg/mL

Lab note: measured MIC of O=C(C(=O)N1CCN(c2ccc(N3C[C@H](Cn4ccnn4)OC3=O)cc2F)CC1)c1cccs1 was 0.25 µg/mL

Lab note: measured MIC of O=C(c1ccccc1Cl)N1CCN(c2ccc(N3C[C@H](Cn4ccnn4)OC3=O)cc2F)CC1 was 0.5 µg/mL

Lab note: measured MIC of O=C(c1ccc([N+](=O)[O-])cc1)N1CCN(c2ccc(N3C[C@H](Cn4ccnn4)OC3=O)cc2F)CC1 was 1 µg/mL

Lab note: measured MIC of O=C(c1ccc(Cl)cc1)N1CCN(c2ccc(N3C[C@H](Cn4ccnn4)OC3=O)cc2F)CC1 was 0.12 µg/mL

---

tested on: Staphylococcus; test: Antimicrobial activity against methicillin-susceptible coagulase-negative staphylococcus by agar dilution method; type: functional
measured_metric: MIC
State the value, then name its unit.

Lab note: measured MIC of O=C(c1ccc(F)cc1)N1CCN(c2ccc(N3C[C@H](Cn4ccnn4)OC3=O)cc2F)CC1 was 0.5 µg/mL

Lab note: measured MIC of O=C(c1ccccc1)N1CCN(c2ccc(N3C[C@H](Cn4ccnn4)OC3=O)cc2F)CC1 was 0.25 µg/mL

Lab note: measured MIC of O=C(c1cccs1)N1CCN(c2ccc(N3C[C@H](Cn4ccnn4)OC3=O)cc2F)CC1 was 0.25 µg/mL

Lab note: measured MIC of COc1ccc(C(=O)N2CCN(c3ccc(N4C[C@H](Cn5ccnn5)OC4=O)cc3F)CC2)cc1 was 0.5 µg/mL

Lab note: measured MIC of O=C(Cc1ccccc1)N1CCN(c2ccc(N3C[C@H](Cn4ccnn4)OC3=O)cc2F)CC1 was 0.5 µg/mL

Lab note: measured MIC of O=C(c1ccncc1)N1CCN(c2ccc(N3C[C@H](Cn4ccnn4)OC3=O)cc2F)CC1 was 0.25 µg/mL

Lab note: measured MIC of O=C(/C=C/c1ccccc1)N1CCN(c2ccc(N3C[C@H](Cn4ccnn4)OC3=O)cc2F)CC1 was 0.25 µg/mL

Lab note: measured MIC of COc1ccccc1C(=O)N1CCN(c2ccc(N3C[C@H](Cn4ccnn4)OC3=O)cc2F)CC1 was 0.25 µg/mL

Lab note: measured MIC of COc1cccc(C(=O)N2CCN(c3ccc(N4C[C@H](Cn5ccnn5)OC4=O)cc3F)CC2)c1 was 0.25 µg/mL

Lab note: measured MIC of Cc1cccc(S(=O)(=O)N2CCN(c3ccc(N4C[C@H](Cn5ccnn5)OC4=O)cc3F)CC2)c1 was 2 µg/mL

Lab note: measured MIC of O=C(c1cccc(F)c1)N1CCN(c2ccc(N3C[C@H](Cn4ccnn4)OC3=O)cc2F)CC1 was 0.5 µg/mL

Lab note: measured MIC of O=C(c1ccco1)N1CCN(c2ccc(N3C[C@H](Cn4ccnn4)OC3=O)cc2F)CC1 was 0.25 µg/mL

Lab note: measured MIC of O=C1O[C@@H](Cn2ccnn2)CN1c1ccc(N2CCOCC2)c(F)c1 was 0.5 µg/mL

Lab note: measured MIC of O=C1O[C@@H](Cn2ccnn2)CN1c1ccc(N2CCN(S(=O)(=O)c3cccs3)CC2)c(F)c1 was 0.5 µg/mL

Lab note: measured MIC of Cc1cccc(C(=O)N2CCN(c3ccc(N4C[C@H](Cn5ccnn5)OC4=O)cc3F)CC2)c1 was 0.25 µg/mL

Lab note: measured MIC of O=C(c1cccnc1)N1CCN(c2ccc(N3C[C@H](Cn4ccnn4)OC3=O)cc2F)CC1 was 0.5 µg/mL

---

tested on: Staphylococcus; test: Antimicrobial activity against methicillin-susceptible coagulase-negative staphylococcus by agar dilution method; format: functional
measured_metric: MIC (mg/L)
Give the quantity in mg/L, number only.

Lab note: measured MIC of CC(=O)NC[C@H]1CN(c2ccc(N3CCOCC3)c(F)c2)C(=O)O1 [LINEZOLID] was 0.25

Lab note: measured MIC of O=C(c1cccnc1Cl)N1CCN(c2ccc(N3C[C@H](Cn4ccnn4)OC3=O)cc2F)CC1 was 0.5

Lab note: measured MIC of O=C(c1ccccc1F)N1CCN(c2ccc(N3C[C@H](Cn4ccnn4)OC3=O)cc2F)CC1 was 0.25

Lab note: measured MIC of O=C(c1ccccc1[N+](=O)[O-])N1CCN(c2ccc(N3C[C@H](Cn4ccnn4)OC3=O)cc2F)CC1 was 1

Lab note: measured MIC of O=C(/C=C/c1ccccc1Cl)N1CCN(c2ccc(N3C[C@H](Cn4ccnn4)OC3=O)cc2F)CC1 was 0.25

Lab note: measured MIC of CN[C@H](CC(C)C)C(=O)N[C@H]1C(=O)N[C@@H](CC(N)=O)C(=O)N[C@H]2C(=O)N[C@H]3C(=O)N[C@H](C(=O)N[C@H](C(=O)O)c4cc(O)cc(O)c4-c4cc3ccc4O)[C@H](O)c3ccc(c(Cl)c3)Oc3cc2cc(c3O[C@@H]2O[C@H](CO)[C@@H](O)[C@H](O)[C@H]2O[C@H]2C[C@](C)(N)[C@H](O)[C@H](C)O2)Oc2ccc(cc2Cl)[C@H]1O [VANCOMYCIN] was 1

Reference source for all entries: ChEMBL document CHEMBL1142890
